Where these numbers come from: patent US20020137929A1

Would you kindly list Herbicidal rating CYPIR for each of these compounds?
Test system: CYPIR (Rice Flatsedge)
Test: Preemergence weed control under flooded paddy conditions
Format: in vivo, Cyperus iria
Settings: 0.2500 kg/ha, rated 3-4 weeks after treatment

These recorded examples may help you get a feel for the data.
In [3]: df
Out[3]:
                                   compound              testreadout  observed
0  CCC1SC(=Nc2cc(N3C(=O)C4=C(CCCC4)C3=O)c(F)cc2Cl)N(C)C1=O (centres unmarked)  Herbicidal rating CYPIR       6.0
1  CCOC(=O)CN1C(=O)C(CC(=O)OC(C)C)SC1=Nc1cc(-n2c(=O)cc(C(F)(F)F)n(C)c2=O)c(F)cc1Cl (centres unmarked)  Herbicidal rating CYPIR       9.0
2  C=CCN1C(=O)CSC1=Nc1cc(N2C(=O)C3=C(CCCC3)C2=O)c(F)cc1Cl  Herbicidal rating CYPIR       0.0

Below are some compounds; for each one, tell me its Herbicidal rating CYPIR.
1. COC(=O)CCCN1C(=O)CSC1=Nc1cc(-n2c(=O)cc(C(F)(F)F)n(C)c2=O)c(F)cc1Cl
2. CCOC(=O)CN1C(=O)C(Cc2ccccc2OC)SC1=Nc1cc(-n2c(=O)cc(C(F)(F)F)n(C)c2=O)c(F)cc1Cl (centres unmarked)

1: 0.0; 2: 0.0

====

Task for the reader: assign each of the following compounds its reported Preemergence herbicidal rating SETVI.
Tested on: SETVI (Foxtail, Green)
Assay: Preemergence herbicidal evaluation
Assay type: in vivo, Setaria viridis
Conditions: 0.0313 kg/ha, rated 4-5 weeks after treatment

Observe how each entry below is paired with its result.
>>> df
                                   compound                           testreadout  observed
0  CCOC(=O)CN1C(=O)C(C(=O)OC(C)(C)C)SC1=Nc1cc(-n2c(=O)cc(C(F)(F)F)n(C)c2=O)c(F)cc1Cl (stereo not shown) [Compound 167]  Preemergence herbicidal rating SETVI       7.0
1  Cn1c(C(F)(F)F)cc(=O)n(-c2cc(N=C3SCC(=O)N3C3CCC3)c(Cl)cc2F)c1=O [Compound 168]  Preemergence herbicidal rating SETVI       0.0
2  CCN1C(=O)CSC1=Nc1cc(-n2c(=O)cc(C(F)(F)F)n(C)c2=O)c(F)cc1Cl [Compound 159]  Preemergence herbicidal rating SETVI       8.0

We now examine a further compound.
The recorded Preemergence herbicidal rating SETVI for entry CCOC(=O)CN1C(=O)C(OC)SC1=Nc1cc(-n2c(=O)cc(C(F)(F)F)n(C)c2=O)c(F)cc1Cl (stereo not shown) [Compound 160] equals 1.0

====

Tested on: SETVI (Foxtail, Green)
Test: Preemergence herbicidal evaluation
Assay type: in vivo, Setaria viridis
Conditions: rate 0.1250 kg/ha; rated 4-5 weeks after treatment
Give Preemergence herbicidal rating SETVI for every item shown.
Give bare numbers.

Some entries whose results are on file:
>>> df
                                   molecule          measuredtarget                           testreadout  observed
0  CC(C)OC(=O)CN1C(=O)CSC1=Nc1cc(-n2c(=O)cc(C(F)(F)F)n(C)c2=O)c(F)cc1Cl [Compound 110]  SETVI (Foxtail, Green)  Preemergence herbicidal rating SETVI       8.0
1  C[C@@H](C(=O)OC(C)(C)C)N1C(=O)CSC1=Nc1cc(-n2c(=O)cc(C(F)(F)F)n(C)c2=O)c(F)cc1Cl [Compound 75]  SETVI (Foxtail, Green)  Preemergence herbicidal rating SETVI       9.0
2  COC(=O)C(Cc1ccc(Cl)cc1)N1C(=O)CSC1=Nc1cc(-n2c(=O)cc(C(F)(F)F)n(C)c2=O)c(F)cc1Cl (racemic) [Compound 77]  SETVI (Foxtail, Green)  Preemergence herbicidal rating SETVI       0.0

For every item in the list below, what is its measured Preemergence herbicidal rating SETVI?
1. CCOC(=O)CN1C(=O)C(C(=O)OC)SC1=Nc1cc(-n2c(=O)cc(C(F)(F)F)n(C)c2=O)c(F)cc1Cl (stereo not shown) [Compound 128]
2. CN1C(=O)C(CC(=O)O)SC1=Nc1cc(-n2c(=O)cc(C(F)(F)F)n(C)c2=O)c(F)cc1Cl (stereo not shown) [Compound 63]
3. C=CCN1C(=O)C(CC(=O)OC)SC1=Nc1cc(-n2c(=O)cc(C(F)(F)F)n(C)c2=O)c(F)cc1Cl (stereo not shown) [Compound 64]
4. CC(C)S(=O)(=O)NC(=O)CC1SC(=Nc2cc(-n3c(=O)cc(C(F)(F)F)n(C)c3=O)c(F)cc2Cl)N(C)C1=O (stereo not shown) [Compound 119]

1. 1.0
2. 9.0
3. 7.0
4. 7.0

====

Test system: ZEAMX (Corn, Field)
Experiment: Preemergence herbicidal evaluation
Format: in vivo, Zea mays
Conditions: rate 0.0625 kg/ha; rated 4-5 weeks after treatment; rating scale 0-9
testReadout: Preemergence herbicidal rating ZEAMX

Below, 4 compounds whose answers are already recorded.
>>> print(df.to_string())
                                   compound                           testreadout  observed
0  Cn1c(C(F)(F)F)cc(=O)n(-c2cc(N=C3SCC(=O)N3Cc3cccc(Cl)c3)c(Cl)cc2F)c1=O [Compound 136]  Preemergence herbicidal rating ZEAMX       0.0
1  Cn1c(C(F)(F)F)cc(=O)n(-c2cc(N=C3SCC(=O)N3Cc3ccc(C(F)(F)F)cc3)c(Cl)cc2F)c1=O [Compound 141]  Preemergence herbicidal rating ZEAMX       0.0
2  CCOC(=O)CN1C(=O)C(COC)SC1=Nc1cc(-n2c(=O)cc(C(F)(F)F)n(C)c2=O)c(F)cc1Cl (centres unmarked) [Compound 156]  Preemergence herbicidal rating ZEAMX       1.0
3  Cn1c(C(F)(F)F)cc(=O)n(-c2cc(N=C3SCC(=O)N3Cc3ccccn3)c(Cl)cc2F)c1=O [Compound 131]  Preemergence herbicidal rating ZEAMX       0.0

Now look at this entry.
// Preemergence herbicidal rating ZEAMX value for Cn1c(C(F)(F)F)cc(=O)n(-c2cc(N=C3SCC(=O)N3Cc3ccncc3)c(Cl)cc2F)c1=O [Compound 133] : 0.0

====

System: CHEAL (Lambsquarters, Common)
Experiment: Preemergence herbicidal evaluation
Type: in vivo, Chenopodium album
Details: rate 0.0313 kg/ha; rated 4-5 weeks after treatment
testReadout: Preemergence herbicidal rating CHEAL
Numbers only.

Answered cases to consult:
>>> df
                                   compound                 measuredtarget  observed
0  Cn1c(C(F)(F)F)cc(=O)n(-c2cc(N=C3SCC(=O)N3CC(=O)OC(C)(C)C)c(Cl)cc2F)c1=O [Compound 43]  CHEAL (Lambsquarters, Common)       9.0
1  CCOC(=O)[C@H](Cc1ccccc1)N1C(=O)CSC1=Nc1cc(-n2c(=O)cc(C(F)(F)F)n(C)c2=O)c(F)cc1Cl [Compound 80]  CHEAL (Lambsquarters, Common)       9.0
2  C#CCOC(=O)CC1SC(=Nc2cc(-n3c(=O)cc(C(F)(F)F)n(C)c3=O)c(F)cc2Cl)N(CC=C)C1=O (stereo not drawn) [Compound 67]  CHEAL (Lambsquarters, Common)       9.0
3  CN1C(=O)C(CC(=O)O)SC1=Nc1cc(-n2c(=O)cc(C(F)(F)F)n(C)c2=O)c(F)cc1Cl (stereo not drawn) [Compound 63]  CHEAL (Lambsquarters, Common)       7.0

For every item in the list below, what is its measured Preemergence herbicidal rating CHEAL?
1. Cn1c(C(F)(F)F)cc(=O)n(-c2cc(N=C3SCC(=O)N3CC(=O)OCC3CCCCC3)c(Cl)cc2F)c1=O [Compound 123]
2. CCOC(=O)CN1C(=O)C(C(=O)OC)SC1=Nc1cc(-n2c(=O)cc(C(F)(F)F)n(C)c2=O)c(F)cc1Cl (stereo not drawn) [Compound 128]
3. Cn1c(C(F)(F)F)cc(=O)n(-c2cc(N=C3SCC(=O)N3CC(=O)OC3CCCC3)c(Cl)cc2F)c1=O [Compound 120]
4. Cn1c(C(F)(F)F)cc(=O)n(-c2cc(N=C3NC(=O)CS3)c(Cl)cc2F)c1=O [Compound 39]

9.0
7.0
9.0
0.0

# compound CCOC(=O)CN1C(=O)CN(C)C1=Nc1cc(-n2c(=O)cc(C(F)(F)F)n(C)c2=O)c(F)cc1Cl [Compound 25] ; its Preemergence herbicidal rating CHEAL = 9.0

====

Test system: IPOHE (Morningglory, Ivyleaf)
Experiment: Postemergence herbicidal evaluation
Type: in vivo, Ipomoea hederacea
Settings: postemergence, rate 0.0158 kg/ha
Protocol: In the tests, seedling plants are grown in jiffy flats for about two weeks. The test compounds are dispersed in 50/50 acetone/water mixtures containing 0.5% TWEEN®20, a polyoxyethylene sorbitan monolaurate surfactant of Atlas Chemical Industries, in sufficient quantities to provide the equivalent of about 0.0156 kg to 0.500 kg per hectare of active compound when applied to the plants through a spray nozzle operating at 40 psi for a predetermined time. […]
So I've got a bunch of molecules here, and I need their IPOHE herbicidal rating values.

Some molecules with recorded IPOHE herbicidal rating:
>>> print(df.to_string())
                                   molecule                 measuredtarget  observed
0  CCOC(=O)CN1C(=O)C(Cc2ccccc2)SC1=Nc1cc(-n2c(=O)cc(C(F)(F)F)n(C)c2=O)c(F)cc1Cl (stereo not shown)  IPOHE (Morningglory, Ivyleaf)       2.0
1  CCOC(=O)CN1C(=O)C(CC(=O)Nc2ccccc2)SC1=Nc1cc(-n2c(=O)cc(C(F)(F)F)n(C)c2=O)c(F)cc1Cl (stereo not shown)  IPOHE (Morningglory, Ivyleaf)       9.0
2  CCOC(=O)CN1C(=O)C(=Cc2ccccc2)SC1=Nc1cc(-n2c(=O)cc(C(F)(F)F)n(C)c2=O)c(F)cc1Cl  IPOHE (Morningglory, Ivyleaf)       2.0

The measured IPOHE herbicidal rating associated with COC(=O)C(Cc1ccc(Cl)cc1)N1C(=O)CSC1=Nc1cc(-n2c(=O)cc(C(F)(F)F)n(C)c2=O)c(F)cc1Cl (racemic) reads 9.0
